biological target: hA2b (Homo sapiens (Human), UniProt P29275); test: cAMP inhibition assay in hA2b/CHO cells; type: cell-based; conditions: adenosine stimulation, read-out: cAMP & FLIPR IC50 (nM) hA2b
Sequence (P29275 whole entry): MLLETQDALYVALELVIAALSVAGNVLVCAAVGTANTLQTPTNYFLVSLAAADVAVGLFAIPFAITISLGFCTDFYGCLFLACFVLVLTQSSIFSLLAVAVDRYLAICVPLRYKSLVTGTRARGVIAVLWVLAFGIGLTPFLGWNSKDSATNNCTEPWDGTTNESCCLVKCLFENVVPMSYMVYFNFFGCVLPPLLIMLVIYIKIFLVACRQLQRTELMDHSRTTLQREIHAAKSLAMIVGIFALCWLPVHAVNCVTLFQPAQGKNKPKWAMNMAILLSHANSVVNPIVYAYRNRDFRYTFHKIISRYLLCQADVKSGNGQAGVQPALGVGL
Endpoint Name: IC50 (nM)
Please give a number only; it is taken to be in nM.

Prompt: What value of IC50 has been recorded for this entry: Cc1cc(-c2c(-c3ccc(F)cc3)nc(N)n3nc(Cc4ncccc4F)nc23)cn(C)c1=O
Completion: 91

Prompt: Item Cc1cc(-c2c(-c3ccc(F)cc3)nc(N)n3nc(Cc4cccc(Cl)c4)nc23)ccn1 has what recorded IC50?
Completion: 2950

Prompt: Bench note: what IC50 did Cn1cc(-c2c(-c3cccc(F)c3)nc(N)n3nc(Cc4ncccc4F)nc23)ccc1=O show?
Completion: 72

Prompt: Requested field: IC50. Item: Nc1nc(-c2ccc(F)cc2)c(-c2ccc3nccnc3c2)c2nc(Cc3ncccc3F)nn12
Completion: 3800

Prompt: Record request: IC50 value, item Cc1cnc2ccc(-c3c(-c4ccc(F)cc4)nc(N)n4nc(CC5CCOC5)nc34)cn12 (single isomer, unassigned; isomer 1) [Example 105-1]
Completion: 47.5

Prompt: Request the reported IC50 associated with Cn1cnc2ccc(-c3c(-c4ncco4)nc(N)n4nc(Cc5ncccc5F)nc34)cc21
Completion: 48

Prompt: Find the recorded IC50 belonging to Cn1cc(-c2c(-c3ccc(F)cc3)nc(N)n3nc(Cc4cccc(N)n4)nc23)ccc1=O and report it.
Completion: 173

Prompt: Find the recorded IC50 belonging to Cn1cc(-c2c(-c3ccc(C#N)cc3)nc(N)n3nc(Cc4ncccc4F)nc23)ccc1=O and report it.
Completion: 399

Prompt: Quick check: IC50 of Nc1cc(-c2c(-c3ccc(F)cc3)nc(N)n3nc(Cc4ncccc4F)nc23)ccn1 ?
Completion: 38

Prompt: Entry under review: Cc1cc(-c2c(-c3ccc(F)cc3)nc(N)n3nc(Cc4cscn4)nc23)ccn1 . Reported IC50?
Completion: 1600

Prompt: Given the compound Cc1ccc(-c2nc(N)n3nc(Cc4c(F)cccc4F)nc3c2-c2ccc(=O)n(C)c2)cn1 , what is its reported IC50?
Completion: 631

Prompt: Please report the recorded IC50 for Nc1nc(-c2ncco2)c(-c2ccc3nccn3c2)c2nc(Cc3ncccc3OC(F)F)nn12 .
Completion: 14

Prompt: Entry Cc1cc(-c2c(-c3ccc(F)cc3)nc(N)n3nc(Cc4ncccc4F)nc23)cc(Cl)n1 : reported IC50 = ?
Completion: 511

Prompt: If you can, please state the reported IC50 value of Cn1cc(-c2c(-c3ccc(F)c(F)c3)nc(N)n3nc(Cc4ncccc4F)nc23)ccc1=O .
Completion: 235

====

target: mA2a (Mus musculus (Mouse), UniProt Q60613); assay: cAMP inhibition assay in mA2a/CHO cells; format: cell-based; conditions: adenosine stimulation, read-out: cAMP & FLIPR IC50 (nM) mA2a
Sequence (Q60613 whole entry): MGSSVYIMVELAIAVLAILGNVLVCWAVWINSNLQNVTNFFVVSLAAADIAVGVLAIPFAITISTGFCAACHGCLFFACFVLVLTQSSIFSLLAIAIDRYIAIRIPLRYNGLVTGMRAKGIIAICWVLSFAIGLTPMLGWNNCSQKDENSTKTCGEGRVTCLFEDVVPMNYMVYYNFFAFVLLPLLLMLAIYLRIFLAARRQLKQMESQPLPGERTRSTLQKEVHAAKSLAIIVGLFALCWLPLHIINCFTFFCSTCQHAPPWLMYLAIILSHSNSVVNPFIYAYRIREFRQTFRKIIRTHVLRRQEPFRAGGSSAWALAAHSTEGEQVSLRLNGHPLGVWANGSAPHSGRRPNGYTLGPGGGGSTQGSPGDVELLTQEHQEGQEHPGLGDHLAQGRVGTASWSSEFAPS
Each entry below carries its recorded IC50.
Report the value in nM with no unit label.

Solved cases (5 shown):
Cn1cc(-c2c(-c3ncco3)nc(N)n3nc(Cc4ncccc4F)nc23)ccc1=O [Example 21]	41
Cc1cc(-c2c(-c3ncco3)nc(N)n3nc(Cc4c(F)cccc4F)nc23)cc(C2CC2)n1 [Example 84]	428
Nc1nc(-c2ccc(F)cc2)c(-c2ccc3nc[nH]c3c2)c2nc(Cc3ncccc3F)nn12 [Example 75]	17
Cc1cnc2ccc(-c3c(N(C)C)nc(N)n4nc(Cc5ncccc5F)nc34)cn12 [Example 100]	3.5
Cn1cc(-c2c(-c3ncco3)nc(N)n3nc(Cc4c(F)cccc4F)nc23)ccc1=O [Example 22]	12

Prompt: API: value(readout=IC50, system=mA2a (Mus musculus (Mouse), UniProt Q60613)) for record Cc1cnc2ccc(-c3c(-c4ncco4)nc(N)n4nc(CC5CCOC5)nc34)cn12 (single isomer, unassigned) [Example 107-1]
Completion: 32.7

Prompt: Lab note: need IC50 with mA2a (Mus musculus (Mouse), UniProt Q60613) for entry Cc1c(-c2c(-c3ccc(F)cc3)nc(N)n3nc(Cc4ncccc4F)nc23)ccc(=O)n1C [Example 66] , please look it up.
Completion: 346

Prompt: API: value(readout=IC50, system=mA2a (Mus musculus (Mouse), UniProt Q60613)) for record Nc1nc(-c2ncco2)c(-c2ccnc(OC(F)F)c2)c2nc(Cc3ncccc3F)nn12 [Example 86]
Completion: 48

Prompt: Form field: IC50 recorded for Nc1nc(-c2ccc(F)cc2)c(-c2ccc3ncsc3c2)c2nc(Cc3ncccc3F)nn12 [Example 88] with mA2a (Mus musculus (Mouse), UniProt Q60613) (enter value)
Completion: 2.6

Prompt: # query: IC50 | item Cn1cc(-c2c(-c3ccc(F)cc3F)nc(N)n3nc(Cc4ncccc4F)nc23)ccc1=O [Example 64] | system: mA2a (Mus musculus (Mouse), UniProt Q60613)
Completion: 137

Prompt: Lab request: please report IC50 under test system mA2a (Mus musculus (Mouse), UniProt Q60613) for Cn1cc(-c2c(-c3ccccc3Cl)nc(N)n3nc(Cc4ncccc4F)nc23)ccc1=O [Example 78]
Completion: 324

Prompt: I'm curious: which IC50 was measured for Cn1cc(-c2c(-c3ccc(Cl)cc3)nc(N)n3nc(Cc4ncccc4F)nc23)ccc1=O [Example 56] tested on mA2a (Mus musculus (Mouse), UniProt Q60613)?
Completion: 36

Prompt: Short answer please: IC50, mA2a (Mus musculus (Mouse), UniProt Q60613), entry Nc1nc(-c2ccc(F)cc2)c(-c2ccc(=O)n(CCO)c2)c2nc(Cc3c(F)cccc3F)nn12 [Example 65]
Completion: 0.6

Prompt: Under mA2a (Mus musculus (Mouse), UniProt Q60613): IC50 value of CNc1cc(-c2c(-c3ccc(F)cc3)nc(N)n3nc(Cc4ncccc4F)nc23)ccn1 [Example 43] ?
Completion: 41

Prompt: Query IC50 on mA2a (Mus musculus (Mouse), UniProt Q60613) for Nc1nc(-c2ncco2)c(-c2ccnc(OC(F)F)c2)c2nc(Cc3c(F)cccc3F)nn12 [Example 85]
Completion: 11

Prompt: Test system mA2a (Mus musculus (Mouse), UniProt Q60613); read-out IC50; what value for Nc1nc(-c2ccc(F)cc2)c(-c2ccc3ncccc3c2)c2nc(Cc3ncccc3F)nn12 [Example 89] ?
Completion: 1.3
